Reported KD-WT/KD-mut is given for each of the following binders.
Target: T1, Factor VIIIa (recombinant FVIII, Kogenate FS, Bayer healthcare, activated with alpha-thrombin) (UniProt P00451 20-2351, limits assumed)
T1 construct: also called FVIIIa; cofactor
T1 sequence (looked up): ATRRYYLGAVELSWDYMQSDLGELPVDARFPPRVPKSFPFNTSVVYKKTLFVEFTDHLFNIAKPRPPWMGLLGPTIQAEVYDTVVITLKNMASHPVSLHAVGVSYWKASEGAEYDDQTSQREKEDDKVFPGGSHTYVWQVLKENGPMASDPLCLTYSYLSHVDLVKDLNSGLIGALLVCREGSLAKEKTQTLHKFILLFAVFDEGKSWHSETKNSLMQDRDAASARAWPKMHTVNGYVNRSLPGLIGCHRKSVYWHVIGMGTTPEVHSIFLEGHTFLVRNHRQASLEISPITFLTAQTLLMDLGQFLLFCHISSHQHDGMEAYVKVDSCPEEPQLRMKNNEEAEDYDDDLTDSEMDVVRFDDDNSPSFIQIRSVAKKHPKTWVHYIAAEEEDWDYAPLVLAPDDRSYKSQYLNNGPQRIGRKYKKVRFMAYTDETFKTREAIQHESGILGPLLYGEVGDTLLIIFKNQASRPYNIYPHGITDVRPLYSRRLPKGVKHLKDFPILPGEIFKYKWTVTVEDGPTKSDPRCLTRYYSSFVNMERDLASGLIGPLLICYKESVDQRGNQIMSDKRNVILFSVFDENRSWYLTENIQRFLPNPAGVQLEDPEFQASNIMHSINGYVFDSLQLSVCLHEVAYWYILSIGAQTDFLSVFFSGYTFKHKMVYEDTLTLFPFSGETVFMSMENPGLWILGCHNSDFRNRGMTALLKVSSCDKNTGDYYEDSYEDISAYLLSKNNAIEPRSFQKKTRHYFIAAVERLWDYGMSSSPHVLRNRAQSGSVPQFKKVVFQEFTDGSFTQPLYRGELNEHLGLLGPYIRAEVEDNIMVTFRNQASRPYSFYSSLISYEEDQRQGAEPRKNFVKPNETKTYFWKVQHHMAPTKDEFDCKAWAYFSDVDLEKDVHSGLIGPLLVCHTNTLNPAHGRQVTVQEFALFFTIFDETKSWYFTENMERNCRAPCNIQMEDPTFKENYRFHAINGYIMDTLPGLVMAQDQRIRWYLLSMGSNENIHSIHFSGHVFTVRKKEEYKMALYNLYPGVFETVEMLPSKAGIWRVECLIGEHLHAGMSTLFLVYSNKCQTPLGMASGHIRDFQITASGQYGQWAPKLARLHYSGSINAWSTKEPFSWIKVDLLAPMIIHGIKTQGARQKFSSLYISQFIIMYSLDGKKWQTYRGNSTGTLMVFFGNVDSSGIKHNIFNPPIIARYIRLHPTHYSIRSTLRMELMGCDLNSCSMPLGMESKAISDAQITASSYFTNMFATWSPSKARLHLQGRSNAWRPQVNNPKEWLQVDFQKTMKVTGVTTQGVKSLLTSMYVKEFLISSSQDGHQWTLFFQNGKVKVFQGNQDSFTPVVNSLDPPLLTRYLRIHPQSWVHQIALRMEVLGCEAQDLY
Test: same assay; KD-app of Catalyst Biosciences WT FIXa divided by KD-app of the variant
Number first, unit second.

FIXa-K228N/K247N/N249S (enzyme, also called K63N/K82N/N84S (chymotrypsin numbering)) chain 1: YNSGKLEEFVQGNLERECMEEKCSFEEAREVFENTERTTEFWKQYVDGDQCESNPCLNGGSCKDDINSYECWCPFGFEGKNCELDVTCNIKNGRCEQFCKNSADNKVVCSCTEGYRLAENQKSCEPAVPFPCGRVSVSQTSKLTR chain 2: VVGGEDAKPGQFPWQVVLNGKVDAFCGGSIVNEKWIVTAAHCVETGVNITVVAGEHNIEETEHTEQNRSVIRIIPHHNYNAAINKYNHDIALLELDEPLVLNSYVTPICIADKEYTNIFLKFGSGYVSGWGRVFHKGRSALVLQYLRVPLVDRATCLRSTKFTIYNNMFCAGFHEGGRDSCQGDSGGPHVTEVEGTSFLTGIISWGEECAMKGKYGIYTKVSRYVNWIKEKTKLT ... 0.8 ratio
FIXa-D104N/K106S/K247N/N249S/R318Y/R338E/R403E/E410N (enzyme) chain 1: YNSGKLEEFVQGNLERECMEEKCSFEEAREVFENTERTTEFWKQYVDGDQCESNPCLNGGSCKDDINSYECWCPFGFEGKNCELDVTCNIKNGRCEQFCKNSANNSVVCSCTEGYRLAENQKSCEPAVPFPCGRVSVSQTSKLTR chain 2: VVGGEDAKPGQFPWQVVLNGKVDAFCGGSIVNEKWIVTAAHCVETGVKITVVAGEHNIEETEHTEQNRSVIRIIPHHNYNAAINKYNHDIALLELDEPLVLNSYVTPICIADKEYTNIFLKFGSGYVSGWGRVFHKGYSALVLQYLRVPLVDRATCLESTKFTIYNNMFCAGFHEGGRDSCQGDSGGPHVTEVEGTSFLTGIISWGEECAMKGKYGIYTKVSEYVNWIKNKTKLT ... 1.1 ratio
FIXa-D104N/K106S/I251S/R318Y/R338E/R403E/E410N (enzyme) chain 1: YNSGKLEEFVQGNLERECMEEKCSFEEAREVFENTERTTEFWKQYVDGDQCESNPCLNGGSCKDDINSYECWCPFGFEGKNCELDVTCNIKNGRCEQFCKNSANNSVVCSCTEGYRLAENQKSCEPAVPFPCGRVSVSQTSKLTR chain 2: VVGGEDAKPGQFPWQVVLNGKVDAFCGGSIVNEKWIVTAAHCVETGVKITVVAGEHNIEETEHTEQKRNVSRIIPHHNYNAAINKYNHDIALLELDEPLVLNSYVTPICIADKEYTNIFLKFGSGYVSGWGRVFHKGYSALVLQYLRVPLVDRATCLESTKFTIYNNMFCAGFHEGGRDSCQGDSGGPHVTEVEGTSFLTGIISWGEECAMKGKYGIYTKVSEYVNWIKNKTKLT ... 1.7 ratio
FIXa-Y155F/K247N/N249S/N260S (enzyme) chain 1: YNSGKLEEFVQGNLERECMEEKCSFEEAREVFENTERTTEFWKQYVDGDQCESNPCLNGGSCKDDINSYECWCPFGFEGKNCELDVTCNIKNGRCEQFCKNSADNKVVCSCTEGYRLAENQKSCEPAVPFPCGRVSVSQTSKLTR chain 2: VVGGEDAKPGQFPWQVVLNGKVDAFCGGSIVNEKWIVTAAHCVETGVKITVVAGEHNIEETEHTEQNRSVIRIIPHHNYSAAINKYNHDIALLELDEPLVLNSYVTPICIADKEYTNIFLKFGSGYVSGWGRVFHKGRSALVLQYLRVPLVDRATCLRSTKFTIYNNMFCAGFHEGGRDSCQGDSGGPHVTEVEGTSFLTGIISWGEECAMKGKYGIYTKVSRYVNWIKEKTKLT ... 0.6 ratio
FIXa-D104N/K106S/I251S/R318Y/R338E/E410N (enzyme) chain 1: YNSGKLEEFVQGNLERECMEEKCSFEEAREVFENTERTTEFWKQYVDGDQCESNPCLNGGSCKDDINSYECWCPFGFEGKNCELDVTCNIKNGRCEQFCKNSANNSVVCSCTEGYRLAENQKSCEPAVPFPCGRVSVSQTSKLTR chain 2: VVGGEDAKPGQFPWQVVLNGKVDAFCGGSIVNEKWIVTAAHCVETGVKITVVAGEHNIEETEHTEQKRNVSRIIPHHNYNAAINKYNHDIALLELDEPLVLNSYVTPICIADKEYTNIFLKFGSGYVSGWGRVFHKGYSALVLQYLRVPLVDRATCLESTKFTIYNNMFCAGFHEGGRDSCQGDSGGPHVTEVEGTSFLTGIISWGEECAMKGKYGIYTKVSRYVNWIKNKTKLT ... 7.7 ratio

Fill in KD-WT/KD-mut for record FIXa-I251S/R318Y/R338E/E410N (enzyme, also called I251S/R318Y/E410N/R338E; I86S/R150Y/R170E/E240N (chymotrypsin numbering)) chain 1: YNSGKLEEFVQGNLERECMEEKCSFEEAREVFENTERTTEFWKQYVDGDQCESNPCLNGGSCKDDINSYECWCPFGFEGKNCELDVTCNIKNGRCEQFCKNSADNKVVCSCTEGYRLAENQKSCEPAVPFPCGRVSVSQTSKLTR chain 2: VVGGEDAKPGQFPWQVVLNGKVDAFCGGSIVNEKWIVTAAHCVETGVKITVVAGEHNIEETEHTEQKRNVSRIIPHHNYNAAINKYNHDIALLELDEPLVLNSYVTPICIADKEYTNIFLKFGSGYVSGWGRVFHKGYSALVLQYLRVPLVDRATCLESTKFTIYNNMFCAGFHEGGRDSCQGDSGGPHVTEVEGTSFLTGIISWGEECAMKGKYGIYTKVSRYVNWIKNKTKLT 16.7 ratio

Fill in KD-WT/KD-mut for record FIXa-R318Y/R338E/E410S (enzyme, also called R150Y/R170E/E240S (chymotrypsin numbering)) chain 1: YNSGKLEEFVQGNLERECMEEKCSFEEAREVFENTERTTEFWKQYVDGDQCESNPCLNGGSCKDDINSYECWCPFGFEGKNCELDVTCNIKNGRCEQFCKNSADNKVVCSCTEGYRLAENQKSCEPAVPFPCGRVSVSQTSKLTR chain 2: VVGGEDAKPGQFPWQVVLNGKVDAFCGGSIVNEKWIVTAAHCVETGVKITVVAGEHNIEETEHTEQKRNVIRIIPHHNYNAAINKYNHDIALLELDEPLVLNSYVTPICIADKEYTNIFLKFGSGYVSGWGRVFHKGYSALVLQYLRVPLVDRATCLESTKFTIYNNMFCAGFHEGGRDSCQGDSGGPHVTEVEGTSFLTGIISWGEECAMKGKYGIYTKVSRYVNWIKSKTKLT 14.1 ratio
